Measurement notes: Pharmacokinetics of intraperitoneal or intravenous injection in CD1 mice
Assay type: in vivo
Protocol conditions: male, CD1, mouse, plasma, ip, 10 mg/kg, IP 10 mg/kg, CD1 mice plasma, 0.5 h; read-out: Mean
Recorded endpoint: concentration at 0.5 h (ng/mL)
State just the number; it will be interpreted in ng/mL.

CN(c1cccc(CNc2nc(Nc3ccc(OCCCOCCC(=O)NCCOc4cccc5c4C(=O)N(C4CCC(=O)NC4=O)C5=O)cc3)ncc2C(F)(F)F)c1)S(C)(=O)=O (stereo not drawn) [Compound 107]
59.9
Cc1ncsc1-c1ccc(CNC(=O)[C@@H]2C[C@@H](O)CN2C(=O)[C@@H](NC(=O)CCOCCOc2ccc(Nc3ncc(C(F)(F)F)c(NCc4cccc(N(C)S(C)(=O)=O)c4)n3)cc2)C(C)(C)C)cc1 [Compound 102]
591

Next item in the queue.
concentration at 0.5 h for Cc1ncsc1-c1ccc(CNC(=O)[C@@H]2C[C@@H](O)CN2C(=O)[C@@H](NC(=O)COCCCOc2ccc(Nc3ncc(C(F)(F)F)c(NCc4cccc(N(C)S(C)(=O)=O)c4)n3)cc2)C(C)(C)C)cc1 [Compound 101] ?
573

* * *

Measurement notes: Pharmacokinetics of intraperitoneal or intravenous injection in CD1 mice
Format: in vivo
Protocol conditions: male, CD1, mouse, plasma, ip, 10 mg/kg, IP 10 mg/kg, CD1 mice plasma, 4 h; read-out: Conc. (ng/mL) Mouse 2
Listed here are compounds together with their documented concentration at 4 h.
State just the number; it will be interpreted in ng/mL.

Example entries begin here.
Cc1ncsc1-c1ccc(CNC(=O)[C@@H]2C[C@@H](O)CN2C(=O)[C@@H](NC(=O)CCOCCOc2ccc(Nc3ncc(C(F)(F)F)c(NCc4cccc(N(C)S(C)(=O)=O)c4)n3)cc2)C(C)(C)C)cc1
529
Cc1ncsc1-c1ccc(CNC(=O)[C@@H]2C[C@@H](O)CN2C(=O)[C@@H](NC(=O)CCOCCCOc2ccc(Nc3ncc(C(F)(F)F)c(NCc4cccc(N(C)S(C)(=O)=O)c4)n3)cc2)C(C)(C)C)cc1
1210
CN(c1cccc(CNc2nc(Nc3ccc(OCCCOCCC(=O)NCCOc4cccc5c4C(=O)N(C4CCC(=O)NC4=O)C5=O)cc3)ncc2C(F)(F)F)c1)S(C)(=O)=O (centres unmarked)
14.9
Cc1ncsc1-c1ccc(CNC(=O)[C@@H]2C[C@@H](O)CN2C(=O)[C@@H](NC(=O)COCCCOc2ccc(Nc3ncc(C(F)(F)F)c(NCc4cccc(N(C)S(C)(=O)=O)c4)n3)cc2)C(C)(C)C)cc1
1090

Next item in the queue.
concentration at 4 h for Cc1ncsc1-c1ccc(CNC(=O)[C@@H]2C[C@@H](O)CN2C(=O)[C@@H](NC(=O)COCCOc2ccc(Nc3ncc(C(F)(F)F)c(NCc4cccc(N(C)S(C)(=O)=O)c4)n3)cc2)C(C)(C)C)cc1 ?
625

* * *

Measurement notes: Pharmacokinetics of intraperitoneal or intravenous injection in CD1 mice
Format: in vivo
Protocol conditions: male, CD1, mouse, plasma, ip, 10 mg/kg, IP 10 mg/kg, CD1 mice plasma, 0.25 h; read-out: Conc. (ng/mL) Mouse 3
Recorded endpoint: concentration at 0.25 h (ng/mL)
State just the number; it will be interpreted in ng/mL.

Cc1ncsc1-c1ccc(CNC(=O)[C@@H]2C[C@@H](O)CN2C(=O)[C@@H](NC(=O)CCOCCCOc2ccc(Nc3ncc(C(F)(F)F)c(NCc4cccc(N(C)S(C)(=O)=O)c4)n3)cc2)C(C)(C)C)cc1
562

concentration at 0.25 h for Cc1ncsc1-c1ccc(CNC(=O)[C@@H]2C[C@@H](O)CN2C(=O)[C@@H](NC(=O)CCOCCOc2ccc(Nc3ncc(C(F)(F)F)c(NCc4cccc(N(C)S(C)(=O)=O)c4)n3)cc2)C(C)(C)C)cc1 ?
338

* * *

Measurement notes: Pharmacokinetics of intraperitoneal or intravenous injection in CD1 mice
Type: in vivo
Protocol conditions: male, CD1, mouse, plasma, ip, 10 mg/kg, IP 10 mg/kg, CD1 mice plasma, 8 h; read-out: Mean
Recorded endpoint: concentration at 8 h (ng/mL)
State just the number; it will be interpreted in ng/mL.

Example entries begin here.
Cc1ncsc1-c1ccc(CNC(=O)[C@@H]2C[C@@H](O)CN2C(=O)[C@@H](NC(=O)CCOCCCOc2ccc(Nc3ncc(C(F)(F)F)c(NCc4cccc(N(C)S(C)(=O)=O)c4)n3)cc2)C(C)(C)C)cc1
232
Cc1ncsc1-c1ccc(CNC(=O)[C@@H]2C[C@@H](O)CN2C(=O)[C@@H](NC(=O)COCCOc2ccc(Nc3ncc(C(F)(F)F)c(NCc4cccc(N(C)S(C)(=O)=O)c4)n3)cc2)C(C)(C)C)cc1
119
Cc1ncsc1-c1ccc(CNC(=O)[C@@H]2C[C@@H](O)CN2C(=O)[C@@H](NC(=O)COCCCOc2ccc(Nc3ncc(C(F)(F)F)c(NCc4cccc(N(C)S(C)(=O)=O)c4)n3)cc2)C(C)(C)C)cc1
82

Next item in the queue.
concentration at 8 h for Cc1ncsc1-c1ccc(CNC(=O)[C@@H]2C[C@@H](O)CN2C(=O)[C@@H](NC(=O)CCOCCOc2ccc(Nc3ncc(C(F)(F)F)c(NCc4cccc(N(C)S(C)(=O)=O)c4)n3)cc2)C(C)(C)C)cc1 ?
84

* * *

Measurement notes: Pharmacokinetics of intraperitoneal or intravenous injection in CD1 mice
Format: in vivo
Protocol conditions: male, CD1, mouse, plasma, iv, 1 mg/kg, IV 1.0 mg/kg, CD1 mice plasma, 0.5 h; read-out: Conc. (ng/mL) Mouse 2
Listed here are compounds together with their documented concentration at 0.5 h.
State just the number; it will be interpreted in ng/mL.

Cc1ncsc1-c1ccc(CNC(=O)[C@@H]2C[C@@H](O)CN2C(=O)[C@@H](NC(=O)COCCCOc2ccc(Nc3ncc(C(F)(F)F)c(NCc4cccc(N(C)S(C)(=O)=O)c4)n3)cc2)C(C)(C)C)cc1
28.6
Cc1ncsc1-c1ccc(CNC(=O)[C@@H]2C[C@@H](O)CN2C(=O)[C@@H](NC(=O)COCCOc2ccc(Nc3ncc(C(F)(F)F)c(NCc4cccc(N(C)S(C)(=O)=O)c4)n3)cc2)C(C)(C)C)cc1
27.1
Cc1ncsc1-c1ccc(CNC(=O)[C@@H]2C[C@@H](O)CN2C(=O)[C@@H](NC(=O)CCOCCCOc2ccc(Nc3ncc(C(F)(F)F)c(NCc4cccc(N(C)S(C)(=O)=O)c4)n3)cc2)C(C)(C)C)cc1
132

concentration at 0.5 h for Cc1ncsc1-c1ccc(CNC(=O)[C@@H]2C[C@@H](O)CN2C(=O)[C@@H](NC(=O)CCOCCOc2ccc(Nc3ncc(C(F)(F)F)c(NCc4cccc(N(C)S(C)(=O)=O)c4)n3)cc2)C(C)(C)C)cc1 ?
33.2

* * *

Measurement notes: Pharmacokinetics of intraperitoneal or intravenous injection in CD1 mice
Format: in vivo
Protocol conditions: male, CD1, mouse, plasma, ip, 10 mg/kg, IP 10 mg/kg, CD1 mice plasma, 0.25 h; read-out: Conc. (ng/mL) Mouse 3
Listed here are compounds together with their documented concentration at 0.25 h.

Example entries begin here.
Cc1ncsc1-c1ccc(CNC(=O)[C@@H]2C[C@@H](O)CN2C(=O)[C@@H](NC(=O)COCCCOc2ccc(Nc3ncc(C(F)(F)F)c(NCc4cccc(N(C)S(C)(=O)=O)c4)n3)cc2)C(C)(C)C)cc1 [Compound 101]
271 ng/mL
CN(c1cccc(CNc2nc(Nc3ccc(OCCCOCCC(=O)NCCOc4cccc5c4C(=O)N(C4CCC(=O)NC4=O)C5=O)cc3)ncc2C(F)(F)F)c1)S(C)(=O)=O (stereo not drawn) [Compound 107]
111 ng/mL

concentration at 0.25 h for Cc1ncsc1-c1ccc(CNC(=O)[C@@H]2C[C@@H](O)CN2C(=O)[C@@H](NC(=O)COCCOc2ccc(Nc3ncc(C(F)(F)F)c(NCc4cccc(N(C)S(C)(=O)=O)c4)n3)cc2)C(C)(C)C)cc1 [Compound 100] ?
374 ng/mL

* * *

Measurement notes: Pharmacokinetics of intraperitoneal or intravenous injection in CD1 mice
Type: in vivo
Protocol conditions: male, CD1, mouse, plasma, iv, 1 mg/kg, IV 1.0 mg/kg, CD1 mice plasma, 1 h; read-out: Conc. (ng/mL) Mouse 1
Listed here are compounds together with their documented concentration at 1 h.
State just the number; it will be interpreted in ng/mL.

Cc1ncsc1-c1ccc(CNC(=O)[C@@H]2C[C@@H](O)CN2C(=O)[C@@H](NC(=O)COCCOc2ccc(Nc3ncc(C(F)(F)F)c(NCc4cccc(N(C)S(C)(=O)=O)c4)n3)cc2)C(C)(C)C)cc1 [Compound 100]
6.22
Cc1ncsc1-c1ccc(CNC(=O)[C@@H]2C[C@@H](O)CN2C(=O)[C@@H](NC(=O)COCCCOc2ccc(Nc3ncc(C(F)(F)F)c(NCc4cccc(N(C)S(C)(=O)=O)c4)n3)cc2)C(C)(C)C)cc1 [Compound 101]
8.68
Cc1ncsc1-c1ccc(CNC(=O)[C@@H]2C[C@@H](O)CN2C(=O)[C@@H](NC(=O)CCOCCOc2ccc(Nc3ncc(C(F)(F)F)c(NCc4cccc(N(C)S(C)(=O)=O)c4)n3)cc2)C(C)(C)C)cc1 [Compound 102]
11.8

Next item in the queue.
concentration at 1 h for Cc1ncsc1-c1ccc(CNC(=O)[C@@H]2C[C@@H](O)CN2C(=O)[C@@H](NC(=O)CCOCCCOc2ccc(Nc3ncc(C(F)(F)F)c(NCc4cccc(N(C)S(C)(=O)=O)c4)n3)cc2)C(C)(C)C)cc1 [Compound 103] ?
52.1
